- ASSAY INFO: Lap shear testing using pig skin
- EXPERIMENTAL PARAMETERS: 1/2" x 1" overlap, about 100 μl adhesive, cure 20~30 min, Instron pulling rate 5 mm/min, about 10 joints
- Method: General Procedure for Lap Shear Testing Using Pig Skin Fresh pig skin was harvested from the back of the pig within 5 hours post sacrifice. The hair was removed by trimming and shaving to expose a smooth skin surface. The fat attached to the inside skin surface was trimmed away. […] The strength of the cured joint was tested using an Instron (Model 5544) with a pulling rate of 5 mm/min. The maximum load for the joint to fail was recorded. […]
REPORTED ENDPOINT: Load (maximum load for the lap shear joint to fail) (Ib)
All answers are understood in Ib, so give the number only.

Field: example entries. Status: answers known.
COMPOUND	READING UNIT	OBSERVED RESULT
C=C(C#N)C(=O)OC(CCCC)C(=O)OCC (centres unmarked)	Ib	1.26
C=C(C#N)C(=O)OC(C)C(=O)OCCCC (centres unmarked) [Bu-Lac-CA, reference compound]	Ib	4.96

Would you mind telling me what Load (maximum load for the lap shear joint to fail) value was observed for `C=C(C#N)C(=O)OCCCCCC(=O)OCC` ?
3.68

Would you mind telling me what Load (maximum load for the lap shear joint to fail) value was observed for C=C(C#N)C(=O)OC(C)CC(=O)OCC (centres unmarked) ?
4.09

Would you mind telling me what Load (maximum load for the lap shear joint to fail) value was observed for C=C(C#N)C(=O)OC(CCC)CC(=O)OCC (centres unmarked) ?
4.49
